From: paper PMC5063400

biological target: porcine GR Val610 (mutant) (Sus scrofa, UniProt Q9N1U3); assay: Transactivation assay (MMTV-luciferase reporter) in Cos-7 cells, mutant Val610 GR
Sequence (Q9N1U3 whole entry, change not shown): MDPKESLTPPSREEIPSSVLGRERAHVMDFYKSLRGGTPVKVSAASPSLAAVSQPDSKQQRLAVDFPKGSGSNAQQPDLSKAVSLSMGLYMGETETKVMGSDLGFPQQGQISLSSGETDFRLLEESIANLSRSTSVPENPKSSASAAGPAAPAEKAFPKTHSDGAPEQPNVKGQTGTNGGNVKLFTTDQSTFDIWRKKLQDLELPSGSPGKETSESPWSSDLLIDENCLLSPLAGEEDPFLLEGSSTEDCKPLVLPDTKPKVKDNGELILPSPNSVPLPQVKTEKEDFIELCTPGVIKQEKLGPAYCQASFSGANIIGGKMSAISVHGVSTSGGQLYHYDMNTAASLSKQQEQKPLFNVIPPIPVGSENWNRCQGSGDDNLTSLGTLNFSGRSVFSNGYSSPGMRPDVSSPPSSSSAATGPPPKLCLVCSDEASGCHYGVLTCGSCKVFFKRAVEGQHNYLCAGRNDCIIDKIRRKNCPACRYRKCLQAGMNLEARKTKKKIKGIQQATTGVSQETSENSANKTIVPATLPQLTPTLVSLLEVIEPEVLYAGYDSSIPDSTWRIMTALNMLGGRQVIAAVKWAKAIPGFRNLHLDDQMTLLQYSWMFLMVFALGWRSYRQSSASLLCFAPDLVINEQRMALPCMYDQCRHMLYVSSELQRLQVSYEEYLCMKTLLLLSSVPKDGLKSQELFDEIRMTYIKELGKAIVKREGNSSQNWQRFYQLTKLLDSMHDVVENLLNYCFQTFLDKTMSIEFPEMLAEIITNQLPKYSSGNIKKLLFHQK
The reader will find reported EC50 values listed item by item below.
Put your answer as a value accompanied by its unit after it.

C[C@]12CCC(=O)C=C1CC[C@@H]1[C@@H]2[C@@H](O)C[C@]2(C=O)[C@@H](C(=O)CO)CC[C@@H]12 50.6 nM

Prompt: Looking for the measured EC50 of C[C@]12CCC(=O)C=C1CC[C@@H]1[C@@H]2[C@@H](O)C[C@@]2(C)[C@H]1CC[C@]2(O)C(=O)CO , can you help?
Completion: 36.5 nM
